Reference source: patent US20250375460A1

Kindly state DC50 for each of the entries shown.
target: STAT3 (Homo sapiens); construct: expressed in transfected cells; host or cells: A549; assay: STAT3 HiBiT degradation assay in transfected A549 cells; assay type: cell-based; conditions: 24 h compound incubation, Nano-Glo HiBiT lytic detection, read-out: STAT3 HiBiT A549 degradation 24 h: Average external-Abs DC50

[[record]]
compound = "C#Cc1ccc(CNC(=O)[C@@H]2C[C@@H](O)CN2C(=O)[C@@H](NC(=O)CCCc2cccc(OC[C@H](CCC(N)=O)NC(=O)[C@@H]3CC[C@@H]4CCN(C(C)=O)C[C@H](NC(=O)c5cc6cc(C(=O)P(=O)(O)O)ccc6[nH]5)C(=O)N43)c2C)C(C)(C)C)cc1 [I-14]"
valuereported = "1 to 10 nM"


Please turn your attention to the following entry.
Asked: Quote DC50 reported for C#Cc1ccc(CNC(=O)[C@@H]2C[C@@H](O)CN2C(=O)[C@@H](NC(=O)CCCc2cccc(OC[C@H](CCC(N)=O)NC(=O)[C@@H]3CC[C@@H]4CCN(C(C)=O)C[C@H](NC(=O)c5cc6cc(C(=O)P(=O)(O)O)ccc6[nH]5)C(=O)N43)c2Cl)C(C)(C)C)cc1 [I-5] please.
Given back: 1 to 10 nM

* * *

Molecular target: STAT3 (Homo sapiens, UniProt P40763)
Construct: expressed in transfected cells; host or cells: A549
Sequence (P40763 whole entry): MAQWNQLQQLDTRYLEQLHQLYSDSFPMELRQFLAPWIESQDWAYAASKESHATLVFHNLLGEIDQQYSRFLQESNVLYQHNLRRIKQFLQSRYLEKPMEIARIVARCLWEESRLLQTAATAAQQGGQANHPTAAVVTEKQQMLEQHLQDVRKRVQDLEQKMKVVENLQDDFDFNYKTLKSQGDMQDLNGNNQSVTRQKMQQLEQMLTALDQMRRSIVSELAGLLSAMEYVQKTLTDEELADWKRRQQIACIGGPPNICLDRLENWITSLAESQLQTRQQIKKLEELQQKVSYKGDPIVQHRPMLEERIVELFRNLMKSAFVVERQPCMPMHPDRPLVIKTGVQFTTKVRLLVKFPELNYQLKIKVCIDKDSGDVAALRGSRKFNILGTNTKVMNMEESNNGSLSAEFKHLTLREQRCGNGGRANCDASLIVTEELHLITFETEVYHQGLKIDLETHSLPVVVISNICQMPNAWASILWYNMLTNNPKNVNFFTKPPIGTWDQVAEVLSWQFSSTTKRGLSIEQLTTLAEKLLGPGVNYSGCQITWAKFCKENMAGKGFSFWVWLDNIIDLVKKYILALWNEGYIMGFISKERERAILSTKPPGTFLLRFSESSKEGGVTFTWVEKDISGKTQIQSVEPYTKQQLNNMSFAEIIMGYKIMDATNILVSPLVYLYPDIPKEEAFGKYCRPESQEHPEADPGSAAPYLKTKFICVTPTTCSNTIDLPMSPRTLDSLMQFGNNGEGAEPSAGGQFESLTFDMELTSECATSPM
Assay: STAT3 HiBiT degradation assay in transfected A549 cells
Assay type: cell-based
Settings: 24 h compound incubation, Nano-Glo HiBiT lytic detection, read-out: STAT3 HiBiT A549 degradation 24 h: Average external-Abs DC50
Protocol: Compound preparation and Cell seeding: The transfected A549 cells were harvested from dish into cell culture medium and cell numbers counted. […] Detection: Plates were removed from incubators and equilibrated at room temperature for 15 minutes. […] 30 μL of Nano-Glo Hibit Lytic Detection reagent was added into each well to be detected. The plates were held at room temperature for 10 min followed by reading on EnSpire. […]
Kindly state DC50 for each of the entries shown.

[[record]]
itemsmiles = "CC(=O)N1CC[C@@H]2CC[C@H](C(=O)N[C@@H](CCC(N)=O)COc3cccc(CCCCC(=O)N[C@H](C(=O)N4C[C@H](O)C[C@H]4C(=O)NCc4ccc(-c5scnc5C)cc4)C(C)(C)C)c3Cl)N2C(=O)[C@H](NC(=O)c2cc3cc(C(=O)P(=O)(O)O)ccc3[nH]2)C1"
valuereported = "> 100 nM"

[[record]]
itemsmiles = "CCOP(=O)(OCC)C(=O)c1ccc2[nH]c(C(=O)N[C@H]3CN(C(C)=O)CC[C@H]4CC[C@@H](C(=O)N[C@@H](CCC(N)=O)COc5cccc(CCCOc6cc([C@H](C(=O)N7C[C@H](O)C[C@H]7C(=O)NCc7ccc(-c8scnc8C)cc7)C(C)C)on6)c5Cl)N4C3=O)cc2c1"
valuereported = "10 to 100 nM"

[[record]]
itemsmiles = "CNC(=O)N1CC[C@H]2CC[C@@H](C(=O)N[C@@H](CCC(N)=O)COc3cccc(CCCC(=O)N[C@H](C(=O)N4C[C@H](O)C[C@H]4C(=O)N[C@@H](C)c4ccc(-c5scnc5C)cc4)C(C)(C)C)c3Cl)N2C(=O)[C@@H](NC(=O)c2cc3cc(C(F)(F)P(=O)(O)O)ccc3s2)C1"
valuereported = "> 100 nM"


# map each compound to its DC50
1. C#Cc1ccc([C@H](C)NC(=O)[C@@H]2C[C@@H](O)CN2C(=O)[C@@H](NC(=O)CCCc2cccc(OC[C@H](CCC(N)=O)NC(=O)[C@@H]3CC[C@@H]4CCN(C(C)=O)C[C@H](NC(=O)c5cc6cc(C(=O)P(=O)(O)O)ccc6[nH]5)C(=O)N43)c2C)C(C)(C)C)cc1
2. CC(=O)N1CC[C@H]2CC[C@@H](C(=O)N[C@@H](CCC(N)=O)COc3cccc(CCCOc4cc([C@@H](C(=O)N5C[C@H](O)C[C@H]5C(=O)NCc5ccc(-c6scnc6C)cc5)C(C)C)on4)c3C)N2C(=O)[C@@H](NC(=O)c2cc3cc(C(=O)P(=O)(O)O)ccc3[nH]2)C1
3. CC(=O)N1CC[C@H]2CC[C@@H](C(=O)N[C@@H](CCC(N)=O)COc3cccc(CCCOc4cc([C@H](C(=O)N5C[C@H](O)C[C@H]5C(=O)NCc5ccc(-c6scnc6C)cc5)C(C)C)on4)c3Cl)N2C(=O)[C@@H](NC(=O)c2cc3cc(C(=O)P(=O)(O)O)ccc3[nH]2)C1
4. CC(=O)N1CC[C@H]2CC[C@@H](C(=O)N[C@@H](CCC(N)=O)COc3cccc(CCCOc4cc([C@@H](C(=O)N5C[C@H](O)C[C@H]5C(=O)N[C@@H](C)c5ccc(-c6scnc6C)cc5)C(C)C)on4)c3C)N2C(=O)[C@@H](NC(=O)c2cc3cc(C(=O)P(=O)(O)O)ccc3[nH]2)C1
5. CC(=O)N1CC[C@H]2CC[C@@H](C(=O)N[C@@H](CCC(N)=O)COc3cccc(CCCOc4cc([C@H](C(=O)N5C[C@H](O)C[C@H]5C(=O)N[C@@H](C)c5ccc(-c6scnc6C)cc5)C(C)C)on4)c3F)N2C(=O)[C@@H](NC(=O)c2cc3cc(C(=O)P(=O)(O)O)ccc3[nH]2)C1
6. CC(=O)N1CC[C@H]2CC[C@@H](C(=O)N[C@@H](CCC(N)=O)COc3cccc(CCCOc4cc([C@H](C(=O)N5C[C@H](O)C[C@H]5C(=O)N[C@@H](C)c5ccc(-c6scnc6C)cc5)C(C)C)on4)c3Cl)N2C(=O)[C@@H](NC(=O)c2cc3cc(C(=O)P(=O)(O)O)ccc3[nH]2)C1
7. C#Cc1ccc([C@H](C)NC(=O)[C@@H]2C[C@@H](O)CN2C(=O)[C@@H](c2cc(OCCCc3cccc(OC[C@H](CCC(N)=O)NC(=O)[C@@H]4CC[C@@H]5CCN(C(C)=O)C[C@H](NC(=O)c6cc7cc(C(=O)P(=O)(O)O)ccc7[nH]6)C(=O)N54)c3C)no2)C(C)C)cc1

Given back:
10 to 100 nM
10 to 100 nM
< 1 nM
10 to 100 nM
< 1 nM
< 1 nM
1 to 10 nM

# map each compound to its DC50
1. C#Cc1ccc([C@H](C)NC(=O)[C@@H]2C[C@@H](O)CN2C(=O)[C@H](c2cc(OCCCc3cccc(OC[C@H](CCC(N)=O)NC(=O)[C@@H]4CC[C@@H]5CCN(C(C)=O)C[C@H](NC(=O)c6cc7cc(C(=O)P(=O)(O)O)ccc7[nH]6)C(=O)N54)c3C)no2)C(C)C)cc1
2. C#Cc1ccc(CNC(=O)[C@@H]2C[C@@H](O)CN2C(=O)[C@@H](c2cc(OCCCc3cccc(OC[C@H](CCC(N)=O)NC(=O)[C@@H]4CC[C@@H]5CCN(C(C)=O)C[C@H](NC(=O)c6cc7cc(C(=O)P(=O)(O)O)ccc7[nH]6)C(=O)N54)c3Cl)no2)C(C)C)cc1
3. CC(=O)N1CC[C@H]2CC[C@@H](C(=O)N[C@@H](CCC(N)=O)COc3cccc(CCCOc4cc([C@@H](C(=O)N5C[C@H](O)C[C@H]5C(=O)N[C@@H](C)c5ccc(-c6scnc6C)cc5)C(C)C)on4)c3Cl)N2C(=O)[C@@H](NC(=O)c2cc3cc(C(=O)P(=O)(O)O)ccc3[nH]2)C1
4. C#Cc1ccc([C@H](C)NC(=O)[C@@H]2C[C@@H](O)CN2C(=O)[C@@H](NC(=O)CCCc2cccc(OC[C@H](CCC(N)=O)NC(=O)[C@@H]3CC[C@@H]4CCN(C(C)=O)C[C@H](NC(=O)c5cc6cc(C(=O)P(=O)(O)O)ccc6[nH]5)C(=O)N43)c2F)C(C)(C)C)cc1

Given back:
["> 100 nM", "< 1 nM", "10 to 100 nM", "1 to 10 nM"]

* * *

biological target: STAT3 (Homo sapiens); construct: expressed in transfected cells; host or cells: A549; test: STAT3 HiBiT degradation assay in transfected A549 cells; format: cell-based; conditions: 24 h compound incubation, Nano-Glo HiBiT lytic detection, read-out: STAT3 HiBiT A549 degradation 24 h: Average external-Abs DC50
Kindly state DC50 for each of the entries shown.

[[record]]
itemsmiles = "C#Cc1ccc(CNC(=O)[C@@H]2C[C@@H](O)CN2C(=O)[C@@H](NC(=O)CCCc2cccc(OC[C@H](CCC(N)=O)NC(=O)[C@@H]3CC[C@@H]4CCN(C(C)=O)C[C@H](NC(=O)c5cc6cc(C(=O)P(=O)(O)O)ccc6[nH]5)C(=O)N43)c2F)C(C)(C)C)cc1"
valuereported = "1 to 10 nM"


# map each molecule to its DC50
1. C#Cc1ccc([C@H](C)NC(=O)[C@@H]2C[C@@H](O)CN2C(=O)[C@@H](NC(=O)CCCc2cccc(OC[C@H](CCC(N)=O)NC(=O)[C@@H]3CC[C@@H]4CCN(C(C)=O)C[C@H](NC(=O)c5cc6cc(C(=O)P(=O)(O)O)ccc6[nH]5)C(=O)N43)c2Cl)C(C)(C)C)cc1
2. CC(=O)N1CC[C@H]2CC[C@@H](C(=O)N[C@@H](CCC(N)=O)COc3cccc(CCCOc4cc([C@H](C(=O)N5C[C@H](O)C[C@H]5C(=O)NCc5ccc(-c6scnc6C)cc5)C(C)C)on4)c3C)N2C(=O)[C@@H](NC(=O)c2cc3cc(C(=O)P(=O)(O)O)ccc3[nH]2)C1
3. C#Cc1ccc(CNC(=O)[C@@H]2C[C@@H](O)CN2C(=O)[C@@H](c2cc(OCCCc3cccc(OC[C@H](CCC(N)=O)NC(=O)[C@@H]4CC[C@@H]5CCN(C(C)=O)C[C@H](NC(=O)c6cc7cc(C(=O)P(=O)(O)O)ccc7[nH]6)C(=O)N54)c3F)no2)C(C)C)cc1
4. C#Cc1ccc([C@H](C)NC(=O)[C@@H]2C[C@@H](O)CN2C(=O)[C@@H](c2cc(OCCCc3cccc(OC[C@H](CCC(N)=O)NC(=O)[C@@H]4CC[C@@H]5CCN(C(C)=O)C[C@H](NC(=O)c6cc7cc(C(=O)P(=O)(O)O)ccc7[nH]6)C(=O)N54)c3Cl)no2)C(C)C)cc1
5. CC(=O)N1CC[C@H]2CC[C@@H](S(=O)(=O)N[C@@H](CCC(N)=O)COc3cccc(CCCC(=O)N[C@H](C(=O)N4C[C@H](O)C[C@H]4C(=O)N[C@@H](C)c4ccc(-c5scnc5C)cc4)C(C)(C)C)c3Cl)N2C(=O)[C@@H](NC(=O)c2cc3cc(C(=O)P(=O)(O)O)ccc3[nH]2)C1

Given back:
1: 1 to 10 nM; 2: < 1 nM; 3: < 1 nM; 4: < 1 nM; 5: 1 to 10 nM
